Just for reference, paper PMC9569420 is where these values come from.

Assay: in vitro
Details: dog, MDCK-MDR1
Property name: Papp at 1 h, 5 μM (×10⁻⁶ cm/s)

{"Compound": "CO[C@@H]1[C@H](N(C)C(=O)CCC(=O)NCc2cn(CCCS(=O)(=O)O)nn2)C[C@H]2O[C@]1(C)n1c3ccccc3c3c4c(c5c6ccccc6n2c5c31)C(=O)NC4", "Quantitative readout": 0.1}
{"Compound": "CC(C)NCC(O)COc1cccc2ccccc12 (stereo not drawn)", "Quantitative readout": 67.4}
{"Compound": "C[C@H]1O[C@@H](O[C@H]2[C@@H](O)C[C@H](O[C@H]3[C@@H](O)C[C@H](O[C@H]4CC[C@@]5(C)[C@H](CC[C@@H]6[C@@H]5C[C@@H](O)[C@]5(C)[C@@H](C7=CC(=O)OC7)CC[C@]65O)C4)O[C@@H]3C)O[C@@H]2C)C[C@H](O)[C@@H]1O", "Quantitative readout": 3.1}
